READOUT: melting point

[
  {
    "COMPOUND": "Cc1cccc2c(=O)[nH]c(C3CCN(CCCO)CC3)cc12 [Example 23a]",
    "RESULT": "197 to 199 °C"
  },
  {
    "COMPOUND": "Cc1cccc2c(=O)[nH]c(CCN3CC[C@H](O)C3)cc12 [Ex. 34a]",
    "RESULT": "176 to 178 °C"
  },
  {
    "COMPOUND": "Cc1cccc2c(=O)[nH]c(CCN3CCCC(O)C3)cc12 (stereo not drawn) [Example 32a]",
    "RESULT": "184 to 185 °C"
  },
  {
    "COMPOUND": "Cc1cccc2c(=O)[nH]c(C3CCN(CCO)C3)cc12 (single isomer, unassigned; (-)) [Ex. 37a]",
    "RESULT": "137.3 to 138.6 °C"
  },
  {
    "COMPOUND": "Cc1cccc2c(=O)[nH]c(CCN3CCC[C@@H](O)C3)cc12 [Example 35a]",
    "RESULT": "180 to 181 °C"
  }
]

// next entry
### Prompt Which melting point value belongs to Cc1cccc2c(=O)[nH]c(C3CCN(CCO)C3)cc12 (single isomer, unassigned; (+)) [Ex. 38a] ?
### Response 137 to 138.6 °C

###

Biological target: recombinant human PARP (Homo sapiens, UniProt P09874)
Sequence (P09874 whole entry): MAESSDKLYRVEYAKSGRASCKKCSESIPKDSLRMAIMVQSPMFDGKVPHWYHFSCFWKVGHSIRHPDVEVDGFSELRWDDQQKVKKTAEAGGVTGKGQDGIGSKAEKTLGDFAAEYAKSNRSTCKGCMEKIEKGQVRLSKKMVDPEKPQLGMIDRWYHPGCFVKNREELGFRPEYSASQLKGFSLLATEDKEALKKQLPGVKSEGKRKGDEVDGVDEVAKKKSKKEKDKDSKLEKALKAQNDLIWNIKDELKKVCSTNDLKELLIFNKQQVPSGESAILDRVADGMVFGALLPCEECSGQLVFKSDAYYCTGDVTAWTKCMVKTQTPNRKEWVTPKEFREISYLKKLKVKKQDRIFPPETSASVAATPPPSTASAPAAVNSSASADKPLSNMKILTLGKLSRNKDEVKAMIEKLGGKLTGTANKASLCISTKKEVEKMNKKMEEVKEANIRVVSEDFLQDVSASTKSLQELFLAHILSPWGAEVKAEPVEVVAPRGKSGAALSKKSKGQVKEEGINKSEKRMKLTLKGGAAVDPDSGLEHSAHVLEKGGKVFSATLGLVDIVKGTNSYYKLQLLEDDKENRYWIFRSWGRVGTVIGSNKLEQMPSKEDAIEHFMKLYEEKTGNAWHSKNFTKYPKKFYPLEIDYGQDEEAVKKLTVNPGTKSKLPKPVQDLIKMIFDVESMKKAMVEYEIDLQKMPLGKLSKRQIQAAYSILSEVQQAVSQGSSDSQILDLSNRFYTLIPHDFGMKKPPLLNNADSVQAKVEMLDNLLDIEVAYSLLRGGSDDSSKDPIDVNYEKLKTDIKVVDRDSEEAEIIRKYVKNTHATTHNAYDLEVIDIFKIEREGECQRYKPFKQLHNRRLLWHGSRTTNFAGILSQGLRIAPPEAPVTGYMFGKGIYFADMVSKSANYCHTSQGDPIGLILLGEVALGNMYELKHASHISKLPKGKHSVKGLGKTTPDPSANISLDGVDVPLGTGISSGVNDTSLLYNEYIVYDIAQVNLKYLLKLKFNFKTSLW
Assay: PARP enzyme activity inhibitory action (3H-NAD poly ADP-ribosylation, filter assay)
Details: 25° C., 15 min
READOUT: IC50 (nM)

[
  {
    "COMPOUND": "Cc1cccc2c(=O)[nH]c(C3CCN(CCO)C3)cc12 (centres unmarked) [Ex. 28a]",
    "READOUT": "IC50",
    "NUMERIC VALUE": 35
  },
  {
    "COMPOUND": "Cc1cccc2c(=O)[nH]c(CCN3CC[C@@H](O)C3)cc12",
    "READOUT": "IC50",
    "NUMERIC VALUE": 39
  },
  {
    "COMPOUND": "Cc1cccc2c(=O)[nH]c(CCN3CC[C@H](O)C3)cc12 [Ex. 34a]",
    "READOUT": "IC50",
    "NUMERIC VALUE": 34
  }
]

1. Cc1cccc2c(=O)[nH]c(CCN3CCC[C@@H]3CO)cc12 [Ex. 36a]
2. O=c1[nH]c(C2CCN(CCO)CC2)cc2ccccc12
### Prompt Please indicate which entry, 1 or 2 , has the lower recorded IC50 value. Response format: the label of the selected entry.
### Response 1
(1: 29 nM, 2: 44 nM)

###

Molecular target: recombinant human PARP (Homo sapiens, UniProt P09874)
Experiment: PARP enzyme activity inhibitory action (3H-NAD poly ADP-ribosylation, filter assay)
Details: 25° C., 15 min
pIC50: −log10 of the molar value.
READOUT: pIC50

Worked cases, pIC50 given:
[
  {
    "COMPOUND": "Cc1cccc2c(=O)[nH]c(CCCN3CCC(O)C3)cc12 (centres unmarked)",
    "pIC50": 7.34
  },
  {
    "COMPOUND": "Cc1cccc2c(=O)[nH]c(C3CCN(CCO)CC3)cc12",
    "pIC50": 7.77
  },
  {
    "COMPOUND": "Cc1cccc2c(=O)[nH]c(C3CCN(CCO)C3)cc12 (single isomer, unassigned; (+)) [Ex. 38a]",
    "pIC50": 7.54
  }
]

1. Cc1cccc2c(=O)[nH]c(CCN3CCC(O)C3)cc12 (centres unmarked)
2. Cc1cccc2c(=O)[nH]c(C3CCN(CCO)C3)cc12 (single isomer, unassigned; (-)) [Ex. 37a]
### Prompt Lower value of pIC50 belongs to which: 1 or 2 ? Indicate which entry you chose by stating its label.
### Response 1
(1: 7.30, 2: 7.70)
